FYI, the data here is from patent US20240301052A1.

# studyTarget: T1, human SLC34A2 (human, UniProt O95436 1-690)
# T1 sequence (looked up): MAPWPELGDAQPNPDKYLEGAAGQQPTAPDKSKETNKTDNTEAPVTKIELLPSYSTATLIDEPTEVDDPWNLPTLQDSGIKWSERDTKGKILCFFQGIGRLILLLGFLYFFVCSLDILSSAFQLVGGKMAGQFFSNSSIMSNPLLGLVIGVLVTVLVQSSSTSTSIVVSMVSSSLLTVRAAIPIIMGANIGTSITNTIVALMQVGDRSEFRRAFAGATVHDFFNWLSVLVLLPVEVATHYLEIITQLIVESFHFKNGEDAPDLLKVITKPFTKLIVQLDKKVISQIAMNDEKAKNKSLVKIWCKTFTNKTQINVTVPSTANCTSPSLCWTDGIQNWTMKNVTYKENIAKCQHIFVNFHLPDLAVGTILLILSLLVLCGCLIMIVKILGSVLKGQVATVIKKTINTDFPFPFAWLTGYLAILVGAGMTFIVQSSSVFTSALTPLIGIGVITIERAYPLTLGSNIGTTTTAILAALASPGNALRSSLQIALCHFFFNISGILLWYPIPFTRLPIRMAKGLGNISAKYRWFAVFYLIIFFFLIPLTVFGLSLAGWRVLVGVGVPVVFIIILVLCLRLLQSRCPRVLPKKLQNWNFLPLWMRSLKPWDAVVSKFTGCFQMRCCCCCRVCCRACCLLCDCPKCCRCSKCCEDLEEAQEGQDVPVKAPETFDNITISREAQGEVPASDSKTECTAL
# assayOverview: cell-based or functional assay
attributeMeasured: ADCC reporter Top (MFI)
Answer with the figure and its unit, nothing else.

For orientation, consider the following solved cases.
{"binder": "xi18G1H4 hIgG1 (antibody, V domains shown, chimeric, hIgG1) VH: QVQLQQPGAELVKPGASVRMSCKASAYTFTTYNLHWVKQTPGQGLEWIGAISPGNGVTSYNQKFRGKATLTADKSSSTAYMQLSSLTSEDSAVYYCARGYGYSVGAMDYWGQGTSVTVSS VL: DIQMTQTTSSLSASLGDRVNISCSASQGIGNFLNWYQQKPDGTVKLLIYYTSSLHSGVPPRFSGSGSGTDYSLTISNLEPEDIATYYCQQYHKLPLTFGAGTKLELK", "ADCC reporter Top (MFI)": "228000 MFI"}
{"binder": "xi62G10E4G8 hIgG1 (antibody, V domains shown, chimeric, hIgG1) VH: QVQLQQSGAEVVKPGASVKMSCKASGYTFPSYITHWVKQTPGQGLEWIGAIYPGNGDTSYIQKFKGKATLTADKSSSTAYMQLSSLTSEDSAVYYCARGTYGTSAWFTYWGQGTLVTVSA VL: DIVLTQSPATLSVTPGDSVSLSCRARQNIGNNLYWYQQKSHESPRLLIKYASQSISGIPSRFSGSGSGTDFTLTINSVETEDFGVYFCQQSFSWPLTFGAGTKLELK", "ADCC reporter Top (MFI)": "542000 MFI"}

Here's the next entry for you.
[Q] Find the measured ADCC reporter Top (MFI) of xi84F2D10 hIgG1 (antibody, V domains shown, chimeric, hIgG1) VH: QVQLQQPGAVLVKPGASVKMSCKASGYTFTSYNLHWVKQTPGQGLEWIGAIYPGNGDTSYIQKFKGKATLTADKSSSTAYMQLSSLTSEDSAVYYCARGKYGNYEGFAYWGQGTLVTVSA VL: DILLTQSPAILSVSPGERVSISCRASQSIGTSIYWYQQRRNGSPRLLIKFASESISGIPSRFSGSGSGTDFTLSINSVESEDIADYYCQQNNRWPFTFGSGTKLEIK and report it.
[A] 409000 MFI
